Exercise: state measured LD50/ED50, inhibition of nicotine lethality for each of the compounds provided.
system: nicotine lethality; assay: animal or person; format: in vivo, white mice; conditions: mouse, in vivo, po
Counter-ions that a name gives are not always drawn.
Just the number.

Q) Write down LD50/ED50, inhibition of nicotine lethality measured for item CC(CN(C)C)CN1c2ccccc2OCOc2ccc(Cl)cc21 (stereo not drawn) [Example 6, hydrochloride]
A) 25

Q) Please give the documented LD50/ED50, inhibition of nicotine lethality of CN(C)CCCN1c2cc(Cl)ccc2OCOc2ccc(Cl)cc21
A) 35.6

Q) Give recorded LD50/ED50, inhibition of nicotine lethality. Clc1ccc2c(c1)N(CCN1CCCCC1)c1ccccc1OCO2 [Example 5, hydrochloride]
A) 12

Q) Given CN(C)CCCN1c2ccccc2OCOc2ccc(Cl)cc21 , respond with its LD50/ED50, inhibition of nicotine lethality.
A) 54

Q) Determine from records and report LD50/ED50, inhibition of nicotine lethality for Clc1ccc2c(c1)N(CCN1CCOCC1)c1ccccc1OCO2
A) 14

----------
experiment: Acute toxicity in white mice, peroral; details: mouse, in vivo, po, white mice CFLP
Where a name gives a salt, the structure may show the parent alone.
measurement.label: LD50 (mg/kg)
Enter your answer as a number in mg/kg; do not include the unit.

Q) Please give the documented LD50 of Clc1ccc2c(c1)N(CCN1CCCCC1)c1ccccc1OCO2 [Example 5, hydrochloride]
A) 700

Q) Given the molecule CN(C)CCCN1c2ccccc2OCOc2ccc(Cl)cc21 , write its reported LD50.
A) 760

Q) Complete the entry with LD50 for CC(CN(C)C)CN1c2ccccc2OCOc2ccc(Cl)cc21 (stereo not shown) [Example 6, hydrochloride]
A) 270

Q) Give the value of LD50 reported for the following: CN1CCN(CCN2c3ccccc3OCOc3ccc(Cl)cc32)CC1 [Example 7, dihydrochloride]
A) 600

Q) Consider the molecule CN(C)CCCN1c2cc(Cl)ccc2OCOc2ccc(Cl)cc21 and give its recorded LD50.
A) 320
